test system: Streptococcus pneumoniae; experiment: Antibacterial activity against Streptococcus pneumoniae ATCC 700677 assessed as reduction in microbial growth by CLSI based broth microdilution method; type: functional
Measured MIC, listed per entry.
Field: numeric (µg/mL). Do not append units.

Some entries whose results are on file:
{"molecule": "N#Cc1cnc(NC(=O)C2CN(c3cccc(Cl)c3)N(c3cccc(Cl)c3)C2=O)s1 (centres undefined)", "MIC, µg/mL": 32}
{"molecule": "CN[C@H](CC(C)C)C(=O)N[C@H]1C(=O)N[C@@H](CC(N)=O)C(=O)N[C@H]2C(=O)N[C@H]3C(=O)N[C@H](C(=O)N[C@H](C(=O)O)c4cc(O)cc(O)c4-c4cc3ccc4O)[C@H](O)c3ccc(c(Cl)c3)Oc3cc2cc(c3O[C@@H]2O[C@H](CO)[C@@H](O)[C@H](O)[C@H]2O[C@H]2C[C@](C)(N)[C@H](O)[C@H](C)O2)Oc2ccc(cc2Cl)[C@H]1O", "MIC, µg/mL": 2}
{"molecule": "O=C(Nc1ncc([N+](=O)[O-])s1)C1CN(c2ccc(Cl)cc2)N(c2ccc(Cl)cc2)C1=O (centres undefined)", "MIC, µg/mL": 64}

Attention now shifts to the item below.
Measured MIC of O=C(Nc1ncc([N+](=O)[O-])s1)C1CN(c2cccc(Cl)c2)N(c2cccc(Cl)c2)C1=O (centres undefined) : 4
